Test protocol: E. coli DRC41 culture turbidity changes, primary screen, E. coli filamentation inducer project, strain DRC41, OD650, 48 h (AID 1152);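 also: E. coli MC1000 strain DRC41 lacking acrAB efflux pump and sulA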
Run conditions: E. coli DRC41 (acrAB sulA), higher = more signal, called active from +8 up or from −8 down
Can you tell me z-score for the items I'm about to list?
Give only the figure.

Consider the compound shown here: COc1cccc([C@H]2Oc3ccc(OC)cc3C(=NO[C@@H](C)c3cn([C@H](CO)Cc4ccccc4)nn3)[C@@H]2O)c1 What is its recorded z-score?
-2.4

Consider the compound shown here: COc1ccc(O[C@H]2C=C[C@@H](c3ccccc3)O[C@@H]2COC(=O)CCC(C)=NOC[C@@H](O)[C@H]2O[C@@H]3OC(C)(C)O[C@@H]3[C@H]2O)cc1 What is its recorded z-score?
-1.89

Consider the compound shown here: C[C@@H](c1ccccc1)N1C(=O)[C@H]2[C@H]3[C@H](O)[C@H](O)CC(=NO[C@@H]4O[C@H](CO)[C@@H](O)[C@H](O)[C@H]4O)[C@H]3CC[C@H]2C1=O What is its recorded z-score?
0.391

Consider the compound shown here: C=CC[C@@H]1C=C[C@H](ON=C2[C@H]3CCn4c(=O)n(-c5ccccc5)c(=O)n4[C@H]3[C@H](O)[C@@H]3O[C@H]23)[C@@H](CO)O1 What is its recorded z-score?
-0.263

----------
Test protocol: basal RPMI8226 viability, no added stimulus, profiling panel, cell-based, calcein-AM fluorescence, 48 h, PK04 Diversity Set (AID 1166);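 also: cells grown under basal conditions without added stimulus; test concentration not given here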
Run conditions: RPMI8226 myeloma viability, higher = more signal
Entries whose z-score is below -0.5 take fulfilled; entries at or above -0.5 take not fulfilled.

Please determine if O=C1[C@H]2[C@H]3[C@H](O)[C@H](O)CC(=NOC[C@@H](O)COCc4ccco4)[C@H]3CC[C@H]2C(=O)N1c1ccc(F)cc1F is below -0.5 in terms of z-score.
not fulfilled

Please determine if O=C(C=Cc1ccc2c(c1)OCO2)c1ccc(F)cc1 is below -0.5 in terms of z-score.
fulfilled

Please determine if CCC=CCCC(OC(=O)c1ccc(Br)cc1)C1=CCCCC1=O (configuration not stated) is below -0.5 in terms of z-score.
fulfilled

Please determine if COc1ccc(COC(=O)NN=C2C[C@@H](O)[C@@H](O)[C@@H]3[C@@H]4C(=O)N(c5ccc(F)cc5F)C(=O)[C@@H]4CC[C@H]23)cc1 is below -0.5 in terms of z-score.
fulfilled

Please determine if COC(=O)CC=C[C@@H](C)[C@@H](C=NOCC[C@@H]1C=C[C@H](OC(C)=O)[C@@H](COC(C)=O)O1)NS(=O)(=O)c1ccc(C)cc1 is below -0.5 in terms of z-score.
not fulfilled

Please determine if CCOC(=O)[C@H](CC(C)C)NC(=O)CCC1CC(OC(=O)NCCc2ccc(F)cc2)CC2(CCCC(COC(=O)NCC(c3ccccc3)c3ccccc3)O2)O1 (some centres not stated) is below -0.5 in terms of z-score.
not fulfilled

Please determine if O=C(NN=C1C[C@@H](O)[C@@H](O)[C@@H]2[C@@H]3C(=O)N(C[C@@H]4CCCO4)C(=O)[C@@H]3CC[C@H]12)OCc1ccccc1 is below -0.5 in terms of z-score.
not fulfilled

----------
Tested on: Plasmodium falciparum Sir2 (PF13_0152, Sir2A)
Test protocol: pfSir2 binders on small-molecule microarrays, primary screen, biochemical, small-molecule microarray, 635 nm fluorescence (AID 1098);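 also: score merges spot fluorescence intensity with its signal-to-noise ratio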
Run conditions: small-molecule microarray binding, fluorescence 635 nm; higher = more signal
Can you tell me composite z-score for the items I'm about to list?
Give only the figure.

Consider the molecule shown here: CON=CC[C@@H]1C=C[C@H](OC(C)=O)[C@@H](COC(C)=O)O1 What is its recorded composite z-score?
0.0728

Consider the molecule shown here: CO[C@H]1COC(=O)[C@@H](C)COC(=O)[C@H](C)NC(=O)CC=C[C@H]1C What is its recorded composite z-score?
0.473

Consider the molecule shown here: CC(C)CON=C1C[C@@H](O)[C@@H](O)[C@@H]2[C@@H]3C(=O)N(c4ccc(F)cc4F)C(=O)[C@@H]3CC[C@H]12 What is its recorded composite z-score?
0.256

Consider the molecule shown here: CO[C@@H]1COC(=O)[C@@H]2CCCN2C(=O)[C@@H](C)COC(=O)CC=C[C@H]1C What is its recorded composite z-score?
0.13

Consider the molecule shown here: CCc1cc2c(nc1CC)CCN(CCC(C)=NO[C@@H](C)c1cn([C@H](CO)Cc3ccccc3)nn1)C2 What is its recorded composite z-score?
0.6

Consider the molecule shown here: CCOC(=O)NN=C1C[C@@H](O)[C@@H](O)[C@@H]2[C@@H]3C(=O)N(Cc4ccc5c(c4)OCO5)C(=O)[C@@H]3CC[C@H]12 What is its recorded composite z-score?
0.263

Consider the molecule shown here: C[C@@H]1CC[C@H]2C(=O)O[C@@H](COc3ccc(C(C)(C)C)cc3)CN2[C@@H]1c1ccc(Br)cc1 What is its recorded composite z-score?
-0.0295

Consider the molecule shown here: CCOC(=O)[C@H](Cc1ccccc1)NC(=O)CCC1CC(OC(=O)NCc2cccc3ccccc23)CC2(CCCC(COC(=O)NCc3ccccc3)O2)O1 (some centres undefined) What is its recorded composite z-score?
0.388

Consider the molecule shown here: CCOC(=O)[C@H](Cc1ccccc1)NC(=O)CCC1CC(OC(=O)NCCc2ccc(F)cc2)CC2(CCCC(COC(=O)NCCc3ccc(Cl)cc3)O2)O1 (some centres undefined) What is its recorded composite z-score?
0.54

Consider the molecule shown here: COC(=O)[C@H](C)NC(=O)CCC1CC(OC(=O)NCc2cccc3ccccc23)CC2(CCCC(COC(=O)NCC(c3ccccc3)c3ccccc3)O2)O1 (some centres undefined) What is its recorded composite z-score?
0.208

Consider the molecule shown here: CON=C[C@@H](C)[C@H](OCc1ccccc1)C(C)C What is its recorded composite z-score?
-0.187

Consider the molecule shown here: C#CCCCON=C1C[C@@H](O)[C@@H](O)[C@@H]2[C@@H]3C(=O)N(c4ccc(F)cc4F)C(=O)[C@@H]3CC[C@@H]12 What is its recorded composite z-score?
0.191

Consider the molecule shown here: CCOC(=O)CCN1C(=O)[C@H]2[C@H]3[C@H](O)[C@H](O)CC(=NOCc4ccccc4)[C@H]3CC[C@H]2C1=O What is its recorded composite z-score?
0.1

Consider the molecule shown here: O=C1C[C@@H](O)[C@@H](O)[C@@H]2[C@@H]3C(=O)N(Cc4ccccc4)C(=O)[C@@H]3CC[C@@H]12 What is its recorded composite z-score?
0.463

Consider the molecule shown here: CO[C@@H]1COC(=O)CC=C[C@H](C)[C@H](OC)COC(=O)[C@H](C)NC(=O)CC=C[C@H]1C What is its recorded composite z-score?
0.657

Consider the molecule shown here: CC[C@@H](c1ccccc1)n1c(=O)n2n(c1=O)[C@H]1[C@H](O)[C@@H]3O[C@@H]3C(=NOC[C@@H](O)COCc3ccco3)[C@H]1CC2 What is its recorded composite z-score?
1.27

Consider the molecule shown here: CO[C@H]1COC(=O)CC=C[C@@H](C)[C@H](OC)COC(=O)CCC[C@@H]1C What is its recorded composite z-score?
0.786

Consider the molecule shown here: C#CCCCON=C1C[C@@H](O)[C@@H](O)[C@@H]2[C@@H]3C(=O)N(C(C)(C)C)C(=O)[C@@H]3CC[C@H]12 What is its recorded composite z-score?
0.115

Consider the molecule shown here: COC(=O)CC=C[C@@H](C)[C@@H](C=NO[C@H](C)c1cn([C@H](CO)Cc2ccccc2)nn1)NS(=O)(=O)c1ccc(C)cc1 What is its recorded composite z-score?
0.182

Consider the molecule shown here: CCOC(=O)[C@H](CC(C)C)NC(=O)CCC1CC(OC(=O)NCc2ccc3c(c2)OCO3)CC2(CCCC(COC(=O)NCCCN3CCCC3=O)O2)O1 (some centres undefined) What is its recorded composite z-score?
0.929

Consider the molecule shown here: COC(=O)CC=C[C@@H](C)[C@@H](C=NOC[C@@H](O)[C@H]1O[C@@H]2OC(C)(C)O[C@@H]2[C@H]1O)NS(=O)(=O)c1ccc(C)cc1 What is its recorded composite z-score?
0.698

Consider the molecule shown here: CCOC(=O)[C@H](CC(C)C)NC(=O)CCC1CC(OC(=O)NCc2cccc3ccccc23)CC2(CCCC(COC(=O)NCc3cccc(C(F)(F)F)c3)O2)O1 (some centres undefined) What is its recorded composite z-score?
0.0007

Consider the molecule shown here: O=C1CCCC=C1C(CCc1ccccc1)OC(=O)c1ccc(Br)cc1 (centres undefined) What is its recorded composite z-score?
-0.258

Consider the molecule shown here: COC(=O)CC=C[C@@H](C)[C@@H](C=NO[C@H](C)c1cn([C@H](CO)Cc2ccccc2)nn1)OC What is its recorded composite z-score?
0.611

Consider the molecule shown here: CC(CCC(=O)OC[C@H]1O[C@H](C#Cc2ccccc2)C=C[C@@H]1Oc1ccc(C)cc1)=NO[C@H](C)c1cn([C@H](CO)Cc2ccccc2)nn1 What is its recorded composite z-score?
0.708

Consider the molecule shown here: CC(=O)OC[C@H]1OC(ON=CC[C@@H]2C=C[C@H](OC(C)=O)[C@@H](COC(C)=O)O2)[C@H](OC(C)=O)[C@@H](OC(C)=O)[C@@H]1OC(C)=O (some centres undefined) What is its recorded composite z-score?
0.119

Consider the molecule shown here: CCOC(=O)[C@H](CC(C)C)NC(=O)CCC1CC(OC(=O)NCc2cccc3ccccc23)CC2(CCCC(COC(=O)NCCOc3ccccc3)O2)O1 (some centres undefined) What is its recorded composite z-score?
0.951

Consider the molecule shown here: CC(C)=CCCC(C)=CCON=C1C[C@@H](O)[C@@H](O)[C@@H]2[C@@H]3C(=O)N(C(C)(C)C)C(=O)[C@@H]3CC[C@@H]12 What is its recorded composite z-score?
0.263

Consider the molecule shown here: CC(=O)OC[C@H]1O[C@H](CC=NO[C@H](C)c2cn([C@H](CO)Cc3ccccc3)nn2)C=C[C@@H]1OC(C)=O What is its recorded composite z-score?
0.95
